So I've got a bunch of compounds here, and I need their GI50 values.
Target: PIM3 transgenic cells (Ba/F3) (Homo sapiens)
Assay: Proliferation inhibitory effect on PIM3 transgenic cells
Type: cell-based, mouse
Settings: proliferation inhibition, 72 hours, Cell Counting Kit-8, read-out: PIM3 IC50
Where a name gives a salt, the structure may show the parent alone.
Numbers only, in nM.

Here are 3 compounds together with their reported answers.
C[C@H](Nc1cc(-c2n[nH]c(=O)o2)ccc1C(F)(F)F)C1CCNCC1 [Example 58, hydrochloride] :: 570
C[C@H](Nc1cc(-c2n[nH]c(=O)o2)cc(F)c1OC(F)(F)F)C1CCNCC1.Cl [Example 202, hydrochloride] :: 78
C[C@@H]1CNCC[C@@H]1[C@H](C)Nc1cc(-c2n[nH]c(=O)o2)cc(F)c1OC(F)(F)F :: 40

Now look at this entry.
Note to self: GI50 recorded for C[C@H](Nc1cc(-c2n[nH]c(=O)o2)cc(F)c1C(F)(F)F)[C@H]1CCNC[C@H]1F [Example 223, hydrochloride] was 59

====

Molecular target: PIM1 transgenic cells (Ba/F3) (Homo sapiens, UniProt P11309)
Assay: Proliferation inhibitory effect on PIM1 transgenic cells
Format: cell-based, mouse
Conditions: proliferation inhibition, 72 hours, Cell Counting Kit-8, read-out: PIM1 IC50
Where a name gives a salt, the structure may show the parent alone.
recorded_metric: GI50 (µM)
Answers are plain numbers, in µM.

O=c1[nH]nc(-c2ccc(C(F)(F)F)c(N3CCC4(CCNCC4)CC3)c2)o1 [Example 15, hydrochloride] :: 0.6
Cc1ccc(-c2n[nH]c(=O)o2)cc1NC[C@H]1CC[C@H](N)CC1 [Example 67, hydrochloride] :: 0.61
C[C@H](Nc1cc(-c2n[nH]c(=O)o2)cc(F)c1C(F)(F)F)[C@@H]1CCNC[C@@H]1C :: 0.11
NCC[C@H]1CC[C@H](Nc2cc(-c3n[nH]c(=O)o3)ccc2C(F)(F)F)CC1 [Example 44, hydrochloride] :: 0.33
C[C@H](Nc1cc(-c2n[nH]c(=O)o2)cc(Cl)c1Cl)[C@H]1C[C@@H](N)C1 [Example 179, dihydrochloride] :: 0.023

Give GI50 for each of the items listed below.
1. O=c1[nH]nc(-c2ccc(C(F)(F)F)c(NC[C@@H]3C[C@H]4CC[C@@H](C3)N4)c2)o1 [Example 135, hydrochloride]
2. C[C@H](Nc1cc(-c2n[nH]c(=O)o2)ccc1C(F)(F)F)[C@H]1CC[C@H](NCC(F)(F)F)CC1 [Example 197, hydrochloride]
3. C[C@H](Nc1cc(-c2n[nH]c(=O)o2)cc(F)c1C(F)(F)F)C1CCNCC1.Cl [Example 75, hydrochloride]
4. CC[C@H](Nc1cc(-c2n[nH]c(=O)o2)ccc1C(F)(F)F)[C@H]1CC[C@H](N)CC1 [Example 181, hydrochloride]

Return:
[3.5, 1.9, 0.024, 0.068]

Please look at the items below and tell me GI50 for each one, in order.
1. N[C@H]1CC[C@H](Nc2cc(-c3n[nH]c(=O)o3)cc(F)c2C(F)(F)F)CC1 [Example 36, hydrochloride]
2. O=c1[nH]nc(-c2ccc(Br)c(OCC3CCNCC3)c2)o1
3. CC(CC1CCNCC1)Nc1cc(-c2n[nH]c(=O)o2)ccc1C(F)(F)F (centres unmarked) [Example 81, hydrochloride]
4. C[C@H](Nc1cc(-c2n[nH]c(=O)o2)ccc1C(F)(F)F)[C@H]1C[C@@H](N)C1 [Example 145, hydrochloride]
5. C[C@H](Nc1cc(-c2n[nH]c(=O)o2)cc(F)c1C(F)(F)F)[C@H]1CCNC[C@H]1F [Example 223, hydrochloride]
6. O=c1[nH]nc(-c2cc(F)c(C(F)(F)F)c(N[C@@H](C(F)F)C3(F)CCNCC3)c2)o1 [Example 163, hydrochloride]
7. C=C(C)c1c(F)cc(-c2n[nH]c(=O)o2)cc1N[C@@H](C)[C@H]1CC[C@H](N)CC1 [Example 232, hydrochloride]
8. C[C@H](Nc1c(F)c(-c2n[nH]c(=O)o2)cc(F)c1Cl)[C@H]1CC[C@H](N)CC1 [Example 169, hydrochloride]

Return:
[0.57, 0.65, 0.6, 0.061, 0.011, 0.024, 0.028, 0.31]

Take each entry in turn and give its GI50.
1. C[C@H](Nc1cc(-c2n[nH]c(=O)o2)cc(F)c1C(F)(F)F)[C@H]1C[C@@H](N)C1
2. CC(Nc1cc(-c2n[nH]c(=O)o2)ccc1C(F)(F)F)C1CCNCC1 (centres unmarked) [Example 52, hydrochloride]
3. C[C@@H]1CN([C@@H](C)C2CCNCC2)c2cc(-c3n[nH]c(=O)o3)cc(F)c2O1
4. C[C@H](Nc1cc(-c2n[nH]c(=O)o2)cc(S(F)(F)(F)(F)F)c1)C1CCNCC1 [Example 107, hydrochloride]
5. N[C@H]1CC[C@H](Nc2cc(-c3n[nH]c(=O)o3)cc(F)c2Cl)CC1 [Example 40, hydrochloride]
6. CC1(CCNc2cc(-c3n[nH]c(=O)o3)ccc2C(F)(F)F)CCNCC1 [Example 70, hydrochloride]

Return:
1: 0.025; 2: 0.059; 3: 0.19; 4: 6.5; 5: 0.44; 6: 1.7

====

Target: PIM1 serine/threonine kinase (Homo sapiens, UniProt P11309)
Construct: purchased Carna Bioscience, Inc
Sequence (P11309 whole entry): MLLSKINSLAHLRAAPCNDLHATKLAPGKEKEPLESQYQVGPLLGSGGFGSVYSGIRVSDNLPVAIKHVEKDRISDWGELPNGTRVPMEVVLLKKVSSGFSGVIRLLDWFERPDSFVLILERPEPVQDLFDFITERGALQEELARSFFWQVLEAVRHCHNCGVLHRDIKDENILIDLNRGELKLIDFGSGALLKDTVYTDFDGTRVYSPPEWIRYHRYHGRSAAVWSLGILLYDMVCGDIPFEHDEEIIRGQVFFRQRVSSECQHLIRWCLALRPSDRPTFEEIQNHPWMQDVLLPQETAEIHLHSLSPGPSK
Assay: PIM1 serine/threonine kinase inhibitory effect
Type: biochemical
Conditions: PIM1 serine/threonine kinase activity; ATP 40 μM; 30° C., 30 minutes
Where a name gives a salt, the structure may show the parent alone.
Kindly supply the reported IC50 values for the records listed here.

Examples with their reported IC50 follow.
C[C@@H]1CN([C@@H](C)[C@H]2CC[C@H](N)CC2)c2cc(-c3n[nH]c(=O)o3)cc(F)c2O1 [Example 253, hydrochloride] :: 3 nM
CN[C@H]1CC[C@H](CNc2cc(-c3n[nH]c(=O)o3)ccc2C(F)(F)F)CC1 [Example 131, hydrochloride] :: 3 nM
C[C@H](Nc1cc(-c2n[nH]c(=O)o2)ccc1C(F)(F)F)[C@H]1C[C@@H](N)C1 [Example 145, hydrochloride] :: 4 nM
O=c1[nH]nc(-c2ccc(C(F)(F)F)c(/C=C/C3CCNCC3)c2)o1 [Example 30, hydrochloride] :: 24 nM
CC(C)c1c(F)cc(-c2n[nH]c(=O)o2)cc1N[C@@H](C)[C@H]1CC[C@H](N)CC1 [Example 233, hydrochloride] :: 5.5 nM

As a next step, examine the compound that follows.
Documented IC50 of C[C@H](Nc1cc(-c2n[nH]c(=O)o2)cc(F)c1C1CC1)[C@H]1CC[C@H](N)CC1 : 3.3 nM

====

Target: PIM1 serine/threonine kinase (Homo sapiens, UniProt P11309)
Test: PIM1 serine/threonine kinase inhibitory effect
Settings: PIM1 serine/threonine kinase activity; ATP 40 μM; 30° C., 30 minutes
Procedure: Each test substance was prepared to 10 mM with dimethylsulfoxide (DMSO), and further diluted with DMSO so as to have concentrations of 1000, 300, 100, 30, 10, 3, 1, 0.3, 0.1, 0.03, 0.01, and 0.001 μM. Moreover, each dilution was further diluted 33.3-fold with an assay buffer to prepare a test substance solution. The composition of the assay buffer was 50 mM HEPES (pH 7.0), 0.02% NaN3, 0.01% Bovine Serum Albumin, 0.1 mM Orthovanadate, 1 mM Dithiothreitol, and 5 mM MgCl2. […]
pIC50: −log10 of the molar value. Counter-ions that a name gives are not always drawn.
Label rule, in plain words: pIC50 of 8 and up is 1 (yes), under 8 is 0 (no).

Some solved cases for reference:
NCC[C@H]1CC[C@H](Nc2cc(-c3n[nH]c(=O)o3)ccc2C(F)(F)F)CC1 [Example 44, hydrochloride] :: 1 (yes)
C[C@H](Nc1cc(-c2n[nH]c(=O)o2)cc(C#N)c1Cl)C1CCNCC1 [Example 110, hydrochloride] :: 1 (yes)
C[C@@H]1CNCC[C@@H]1[C@H](C)Nc1cc(-c2n[nH]c(=O)o2)cc(F)c1OC(F)(F)F :: 1 (yes)

Enquiry: Is pIC50 at least 8? Consider C[C@H](Nc1cc(-c2n[nH]c(=O)o2)ccn1)C1CCNCC1 [Example 112, dihydrochloride]
Return: 0 (no)

Enquiry: Given the entry O=c1[nH]nc(-c2ccc(C(F)(F)F)c(NCC3CCNCC3)c2)o1 [Example 48, hydrochloride] , answer whether its pIC50 meets or surpasses 8.
Return: 1 (yes)

Enquiry: Does the reported pIC50 for CN[C@H]1C[C@@H]([C@H](C)Nc2cc(-c3n[nH]c(=O)o3)ccc2C(F)(F)F)C1 [Example 192, hydrochloride] fall at or above the 8 mark?
Return: 1 (yes)

Enquiry: In plain terms: is recorded pIC50 at least 8 for Cc1c(F)cc(-c2n[nH]c(=O)o2)cc1N[C@@H](C)[C@H]1CCNC[C@H]1C ?
Return: 1 (yes)

Enquiry: Identify whether the reported pIC50 of the following compound is 8 or greater: N[C@H]1CC[C@H](Nc2cc(-c3n[nH]c(=O)o3)ccc2Cl)CC1
Return: 1 (yes)

Enquiry: Is it the case that N[C@H]1CC[C@H](CNc2cc(-c3n[nH]c(=O)o3)ccc2Cl)CC1 [Example 61, hydrochloride] has pIC50 reaching or exceeding 8?
Return: 1 (yes)

Enquiry: Form field: pIC50 at least 8? Entry: CCc1c(F)cc(-c2n[nH]c(=O)o2)cc1N[C@@H](C)[C@H]1CC[C@H](N)CC1 [Example 231, hydrochloride]
Return: 1 (yes)

Enquiry: Does the reported pIC50 for CC(=O)N[C@H]1C[C@@H](CNc2cc(-c3n[nH]c(=O)o3)ccc2C(F)(F)F)C1(C)C fall at or above the 8 mark?
Return: 0 (no)

Source listed as patent US20220024921A1.
